Tested on: RAW-Dual (murine macrophage reporter line)
Assay: IRF reporter (Lucia luciferase) activity fold change vs agonist alone; higher = enhanced IRF activity
Conditions: modulator concentration 10 µM; agonist: LPS 0.1 ug/mL
reported-metric: IRF reporter
Please give only the number in your answer, with no unit.

// solved cases for IRF reporter follow
compound: CCC[C@@H]1C[C@@H](C(=O)N[C@@H]([C@H]2O[C@H](SC)[C@H](OP(=O)(O)O)[C@@H](O)[C@H]2O)[C@H](C)Cl)N(C)C1
test-system: RAW-Dual (murine macrophage reporter line)
IRF reporter: 1.01
--
compound: S=C(NCc1ccc2c(c1)OCO2)N1CCN(c2ncnc3c2oc2ccccc23)CC1
test-system: RAW-Dual (murine macrophage reporter line)
IRF reporter: 1.35
--
compound: CC(C)N(C(=O)c1ccc(C(=O)NCc2ccc(S(N)(=O)=O)cc2)cc1)C(C)C
test-system: RAW-Dual (murine macrophage reporter line)
IRF reporter: 1.51

# ---- query compound ----
Please report the recorded IRF reporter for COc1cc(C2CC3CC2C(C)C3(C)C)ccc1O (configuration not stated) .
1.01
